Assay: chemical genetic growth profiling, strain panel (AID 1159580);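 note: tested at 20 µM; growth read once vehicle control cultures reached saturation at 30 °C; 1 = growth at the plate median or of vehicle wells; lower values mean less growth of the strain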
Conditions: S. cerevisiae deletion strains, growth OD, locus YAL026C, strain drs2, hits give low values
About 2,000 (36%) of roughly 5,500 compounds were called active. Not shown: some 18% with an inconclusive outcome. The list shows a part of the results.
metric: normalized growth

INSERT INTO measurements (compound, metric, numeric_value) VALUES
  ('O=C1CN2Cc3c(ccc(Cl)c3Cl)N=C2N1', 'normalized growth', 0.976),
  ('COc1cc([C@@H]2c3cc4c(cc3C(O[C@@H]3O[C@@H]5CO[C@@H](c6cccs6)OC5[C@H](O)[C@H]3O)C3COC(=O)[C@@H]32)OCO4)cc(OC)c1O (stereo partly drawn)', 'normalized growth', 0.957),
  ('C[N+]1(CCCCC[N+]2(C)CCCC2)CCCC1', 'normalized growth', 0.995),
  ('C[C@@H]1CC[C@@]2(OC1)OC1C(O)C3C4CC[C@H]5C[C@H](O[C@@H]6O[C@H](CO)[C@H](O[C@@H]7O[C@H](CO)[C@@H](O)[C@H](O[C@@H]8OC[C@@H](O)[C@H](O)[C@H]8O)[C@H]7O[C@@H]7O[C@H](CO)[C@H](O)[C@H](O[C@@H]8O[C@H](CO)[C@@H](O)[C@H](O)[C@H]8O)[C@H]7O)[C@H](O)[C@H]6O)[C@H](O)C[C@]5(C)C4CC[C@]3(C)C1[C@@H]2C (stereo partly drawn)', 'normalized growth', 1.01),
  ('CCn1cc(C(=O)O)c(=O)c2cc(F)c(N3CCNCC3)cc21', 'normalized growth', 0.978),
  ('CCN1CCN(c2cc3c(cc2F)c(=O)c(C(=O)O)cn3C2CC2)CC1', 'normalized growth', 1.01),
  ('O=C(O)c1cn(-c2ccc(F)cc2)c2cc(N3CCNCC3)c(F)cc2c1=O', 'normalized growth', 0.975),
  ('C=CCCCCCCCCCCCC(O)CC(O)CO (stereo not drawn)', 'normalized growth', 1.01);

###

Test: chemical genetic growth profiling, strain panel (AID 1159580);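 note: tested at 20 µM; growth read once vehicle control cultures reached saturation at 30 °C; 1 = growth at the plate median or of vehicle wells; lower values mean less growth of the strain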
Details: S. cerevisiae deletion strains, growth OD, locus YBR009C, strain hhf1, hits give low values
Screen size: about 5,500 compounds; about 2,000 (36%) were called active. Not shown: some 18% with an inconclusive outcome. Some of the results follow.
metric: normalized growth

INSERT INTO assay_data (compound, numeric_value) VALUES
  ('CC(=O)O.CC(=O)O.[Cd]', 0.606),
  ('COC(=O)C1=C(C)NC(C)=C(C(=O)OCCN(C)Cc2ccccc2)C1c1cccc([N+](=O)[O-])c1 (configuration not stated)', 0.984),
  ('O=C(O)c1nc2cc(Cl)c(Cl)cc2[nH]c1=O', 1.04),
  ('C=CCCCCCCCCCCCC(O)CC(O)CO (configuration not stated)', 1),
  ('CCn1cc(C(=O)O)c(=O)c2cc(F)c(N3CCNCC3)cc21', 0.983),
  ('CCN1CCN(c2cc3c(cc2F)c(=O)c(C(=O)O)cn3C2CC2)CC1', 1),
  ('C=CCc1ccccc1OCC(O)CNC(C)C (configuration not stated)', 0.971);

###

Test: chemical genetic growth profiling, strain panel (AID 1159580);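 note: tested at 20 µM; growth read once vehicle control cultures reached saturation at 30 °C; 1 = growth at the plate median or of vehicle wells; lower values mean less growth of the strain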
Conditions: S. cerevisiae deletion strains, growth OD, locus YNL071W, strain lat1, hits give low values
Hit rate of the full screen: of about 5,500 compounds, about 2,000 (36%) were called active. Another 18% or so got no clear call; they are omitted. This is one part of the list.
metric: normalized growth

INSERT INTO measurements (compound, metric, numeric_value) VALUES
  ('O=C(O)/C=C(\CC(=O)O)C(=O)O', 'normalized growth', 1),
  ('O=c1c(-c2ccc(O)cc2)coc2cc(O)cc(O)c12', 'normalized growth', 1.02),
  ('CC(=O)Nc1ccc(O)cc1', 'normalized growth', 1.02),
  ('O=c1c(-c2ccccc2)coc2cc(O)cc(O)c12', 'normalized growth', 1.01),
  ('COc1cccc2c1cc([N+](=O)[O-])c1c(C(=O)O)cc3c(c12)OCO3', 'normalized growth', 1.02),
  ('Nc1ccc(C(=O)O)c(O)c1', 'normalized growth', 0.986),
  ('CC(C)(Oc1ccc(Cl)cc1)C(=O)O', 'normalized growth', 1.02),
  ('COc1ccc(-c2coc3cc(OC(C)=O)cc(OC(C)=O)c3c2=O)cc1', 'normalized growth', 0.845),
  ('Nc1nc(N)c2nc(-c3ccccc3)c(N)nc2n1', 'normalized growth', 0.996),
  ('O=c1c2ccccc2[se]n1-c1ccccc1', 'normalized growth', 0.0612),
  ('CC(=O)CC(c1ccccc1)c1c(O)c2ccccc2oc1=O (centres undefined)', 'normalized growth', 1),
  ('O=c1c2ccccc2oc2ccccc12', 'normalized growth', 0.737),
  ('O=c1oc2ccccc2c(O)c1Cc1c(O)c2ccccc2oc1=O', 'normalized growth', 1.02),
  ('O=C(O)c1cc(=O)c2ccccc2o1', 'normalized growth', 0.988);

Numbers sourced from PubChem BioAssay AID1159580.
